target: V82I mutant HIV-1 protease (Human immunodeficiency virus type 1 group M subtype B, UniProt P04585, V570I); construct: R8Q and V82I mutant HIV-1 proteases; assay: Inhibition of V82I mutant HIV-1 protease (fluorogenic substrate cleavage); conditions: Table III
Binary label based on Ki with cut-off 100 nM: below gives y, not below gives n.

Query string: API: query returns whether the compound falls strictly under 100 nM in Ki. Query: `O=C(N[C@@H](Cc1ccccc1)[C@H](O)[C@H](O)[C@H](Cc1ccccc1)NC(=O)c1ccc(O)c(O)c1)c1ccc(O)c(O)c1`
Result string: n

Query string: What do you have for `O=C(N[C@@H](Cc1ccccc1)[C@H](O)[C@H](O)[C@H](Cc1ccccc1)NC(=O)c1cccc(O)c1)c1cccc(O)c1` ?
Result string: y

Query string: What do you have for `Cc1ccc(O)cc1C(=O)N[C@@H](Cc1ccccc1)[C@H](O)[C@H](O)[C@H](Cc1ccccc1)NC(=O)c1cc(O)ccc1C` ?
Result string: y

Query string: What do you have for `O=C(N[C@@H](Cc1ccccc1)C[C@H](O)[C@H](Cc1ccccc1)NC(=O)c1cccc(O)c1)c1cccc(O)c1` ?
Result string: y

Query string: What do you have for `Nc1cccc(C(=O)N[C@@H](Cc2ccccc2)[C@H](O)[C@H](O)[C@H](Cc2ccccc2)NC(=O)c2cccc(N)c2)c1` ?
Result string: n
